For each entry below, report its Kd value.
B1: NELF-E aptamer (parent)
chain: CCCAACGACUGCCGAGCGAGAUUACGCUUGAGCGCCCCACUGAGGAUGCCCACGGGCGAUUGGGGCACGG

- Variants of: B1
- test description: HiTS-RAP
- condition parameters: with NELF-E (Drosophila)
Express your answer as a number followed by its unit.

Worked cases, Kd given:
mutant name	test value
A4G C13A	5.91 nM
A24G U41A	92.9 nM
G32U	5.38 nM
G54A C66U	16.9 nM

Let's switch to this variant now.
Q. Please look up its Kd: C9G U22G
A. 5.5 nM
